Where these numbers come from: patent US9561231B2

# Subject of test: second (BD2: amino acids E352-E168) bromodomain of BRD4 (Homo sapiens)
# Construct: protocol
# Protocol summary: TR-FRET bromodomain binding assay, BRD4 BD2
# Condition summary: TR-FRET assay protocol (A-G, compound concentration range); Ki calculated from IC50, probe Kd and probe concentration; read-out: TR-FRET Binding Ki: BRD4 (BDII_E352-M457)
# Method: A time-resolved fluorescence resonance energy transfer (TR-FRET) assay was used to determine the affinities of compounds of the Examples listed in Table 1 for each bromodomain of BRD4. […] TR-FRET data were normalized to the means of 24 no-compound controls (“high”) and 8 controls containing 1 μM un-labeled probe (“low”). […] Inhibition constants (Ki) were calculated from the IC50s, probe Kd and probe concentration. […]
Items are presented alongside their recorded pKi.
// pKi: -log10(molar conc.)

Examples with their reported pKi follow.
{"columns": ["Compound", "Subject of test", "pKi"],
 "data": [
  ["COc1cc(=O)n(C)nc1-c1ccccc1Oc1ccc(F)c(Cl)c1", "second (BD2: amino acids E352-E168) bromodomain of BRD4 (Homo sapiens)", 5.50],
  ["Cn1nc(-c2ccccc2Oc2ccccc2)c(-c2ccc(C(=O)NC3CCCCC3)cc2)cc1=O", "second (BD2: amino acids E352-E168) bromodomain of BRD4 (Homo sapiens)", 6.49],
  ["CCOc1ccc(-c2cc(=O)n(C)nc2-c2ccccc2Oc2ccccc2)cc1F", "second (BD2: amino acids E352-E168) bromodomain of BRD4 (Homo sapiens)", 5.59],
  ["CCS(=O)(=O)Nc1ccc(Oc2ccc(F)cc2F)c(-c2cn(C)c(=O)cc2O[C@H]2CC[C@H](N(C)C)CC2)c1", "second (BD2: amino acids E352-E168) bromodomain of BRD4 (Homo sapiens)", 8.04],
  ["CCOc1cc(=O)n(C)cc1-c1cc(NS(=O)(=O)c2ccc(C(C)C)cc2)ccc1Oc1ccc(F)cc1F", "second (BD2: amino acids E352-E168) bromodomain of BRD4 (Homo sapiens)", 7.27],
  ["Cn1cc(-c2cc(NS(=O)(=O)CC(F)(F)F)ccc2Oc2ccccc2)ccc1=O", "second (BD2: amino acids E352-E168) bromodomain of BRD4 (Homo sapiens)", 7.66],
  ["COc1cc(=O)n(C)nc1-c1cc(N)ccc1Oc1ccccc1", "second (BD2: amino acids E352-E168) bromodomain of BRD4 (Homo sapiens)", 6.28]
]}

Lab note: next compound to report on.
Query :: Value lookup for pKi; key = C=CCC(O)c1ccc(-c2cc(=O)n(C)nc2-c2ccccc2Oc2ccccc2)cc1 (centres unmarked)
Result :: 6.42
